# target_or_test_system: hcGAS (Homo sapiens, UniProt Q8N884)
# Sequence (Q8N884 whole entry): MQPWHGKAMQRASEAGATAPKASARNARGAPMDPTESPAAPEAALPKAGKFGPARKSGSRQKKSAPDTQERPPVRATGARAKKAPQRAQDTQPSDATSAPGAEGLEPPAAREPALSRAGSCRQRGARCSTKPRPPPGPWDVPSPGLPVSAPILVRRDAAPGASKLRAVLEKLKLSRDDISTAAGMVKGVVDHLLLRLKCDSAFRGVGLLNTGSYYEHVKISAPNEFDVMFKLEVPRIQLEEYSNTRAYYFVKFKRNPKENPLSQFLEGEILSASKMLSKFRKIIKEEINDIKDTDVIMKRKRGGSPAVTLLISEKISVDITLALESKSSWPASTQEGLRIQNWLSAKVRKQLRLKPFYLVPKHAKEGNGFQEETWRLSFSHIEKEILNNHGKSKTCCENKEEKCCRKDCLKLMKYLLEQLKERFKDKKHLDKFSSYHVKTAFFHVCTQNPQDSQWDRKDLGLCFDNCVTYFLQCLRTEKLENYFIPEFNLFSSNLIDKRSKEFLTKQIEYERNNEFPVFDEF
# measurement_notes: hcGAS LCMS assay (direct measurement of cGAMP production by LC/MS)
# Assay type: biochemical
# condition_details: 4 h incubation with enzyme and substrates; cGAMP production by LC/MS; class symbols; read-out: hcGAS LCMS IC50
pIC50: −log10 of the molar value.
observation_type: pIC50

These recorded examples may help you get a feel for the data.
[[record]]
compound = "COc1cccnc1-c1cc(C(=O)Nc2nnc(-n3nccc3N)s2)oc(=O)c1O[C@@H]1CC[C@H](O)C1 (single isomer, unassigned) [111A*]"
target_or_test_system = "hcGAS (Homo sapiens, UniProt Q8N884)"
observation_type = "pIC50"
result = "9.00 to 9.30"

[[record]]
compound = "COCCOc1c(-c2ncccc2OC)cc(C(=O)Nc2nnc(-n3nccc3C)s2)oc1=O"
target_or_test_system = "hcGAS (Homo sapiens, UniProt Q8N884)"
observation_type = "pIC50"
result = "7.70 to 8.30"

[[record]]
compound = "COc1cccc(OC)c1-c1cc(C(=O)Nc2nnc(-n3nccc3N)s2)oc(=O)c1OCCOCCO"
target_or_test_system = "hcGAS (Homo sapiens, UniProt Q8N884)"
observation_type = "pIC50"
result = "> 9.30"


query: Endpoint output: pIC50 of COCCOc1c(-c2c(C#N)ccnc2OC)cc(C(=O)Nc2nnc(-n3nccc3N)s2)oc1=O . Value?
result: 9.00 to 9.30

query: One more compound: COCCOc1c(-c2ncc(Cl)cc2OC)cc(C(=O)Nc2nnc(-n3nccc3N)s2)oc1=O
result: 9.00 to 9.30
